Each record here notes measured self-aminoacylation.
Test system: biotinyl-Met-oxazolone
Assay: self-aminoacylation, catalytic enhancement (BMO) (fold over background); higher = more active; k-Seq, kA / k0A0; sequences stand for … in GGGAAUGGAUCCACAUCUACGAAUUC…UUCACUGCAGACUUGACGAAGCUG
Fewer inactive variants are shown than the library holds.
Note: the reply should be a number with no unit written.

Sequence String: ACUCACCUAGGCCAUCGGGUG [Fam2.2 aminoacylation ribozyme variant]
Observation Type: self-aminoacylation
Readout Value: 4.87

So what self-aminoacylation did AUUACCCUUAUCAUCGAGUGA [Fam2.1 aminoacylation ribozyme variant] get with biotinyl-Met-oxazolone?
14.1

Enter reported self-aminoacylation observed with biotinyl-Met-oxazolone for CUACUACAAACAAUCAGUCUG [Fam1A.1 aminoacylation ribozyme variant]
0.467

biotinyl-Met-oxazolone / self-aminoacylation / CUACUUAAAACAAUAGGUCUG [Fam1A.1 aminoacylation ribozyme variant] : value?
1.15

What self-aminoacylation appears in the records for this sequence with biotinyl-Met-oxazolone? CUACUUCAAACAAAAGGUCUG [Fam1A.1 aminoacylation ribozyme variant]
0.624

Provide the documented self-aminoacylation with biotinyl-Met-oxazolone as the system for AGUCCCCUGGUCAUCGAGUGA [Fam2.1 aminoacylation ribozyme variant]
6.67

Give the reported self-aminoacylation for AUUACCCUGGUCUUCGCGUGA [Fam2.1 aminoacylation ribozyme variant] (system: biotinyl-Met-oxazolone).
9.58

Notebook: pull reported self-aminoacylation for biotinyl-Met-oxazolone, entry CCACUUCCAACAAUCGGUCUG [Fam1A.1 aminoacylation ribozyme variant]
1.11

I'm curious: which self-aminoacylation was measured for AAGAUUGCUAAUAGUCGCAAA [Fam3.1 aminoacylation ribozyme variant] tested on biotinyl-Met-oxazolone?
1.37

Which measured self-aminoacylation belongs to CUAGUUAAAACAAUCGGUCUG [Fam1A.1 aminoacylation ribozyme variant] , tested on biotinyl-Met-oxazolone?
0.958
